subject_of_test: Calmodulin-domain protein kinase 1 (Toxoplasma gondii, UniProt Q9BJF5)
Sequence (Q9BJF5 whole entry): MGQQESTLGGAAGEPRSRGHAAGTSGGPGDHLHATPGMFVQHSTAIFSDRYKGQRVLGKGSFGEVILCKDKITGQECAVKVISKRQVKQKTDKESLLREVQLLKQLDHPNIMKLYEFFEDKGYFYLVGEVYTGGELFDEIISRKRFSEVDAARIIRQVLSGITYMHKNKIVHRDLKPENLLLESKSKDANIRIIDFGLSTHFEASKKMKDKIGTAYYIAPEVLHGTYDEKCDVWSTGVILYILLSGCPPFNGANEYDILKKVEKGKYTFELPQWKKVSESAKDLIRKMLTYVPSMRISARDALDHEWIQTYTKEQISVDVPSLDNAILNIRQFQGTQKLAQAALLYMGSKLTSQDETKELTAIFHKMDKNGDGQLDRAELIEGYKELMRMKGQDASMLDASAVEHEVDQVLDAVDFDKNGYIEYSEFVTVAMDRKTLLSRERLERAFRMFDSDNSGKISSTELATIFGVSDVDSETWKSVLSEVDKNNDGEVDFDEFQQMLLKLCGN
method_summary: Inhibition Assay
quantity_kind: IC50

>>> df
                                        smi  quantity_kind   result
0  N#Cc1cccc(Oc2nn([C@H]3C[C@H](F)C3)c3ncnc(N)c23)c1           IC50  49.8 nM

Next item in the queue.
Give the reported IC50 for N#Cc1cccc(Oc2nn([C@H]3C[C@H](O)C3)c3ncnc(N)c23)c1 (system: Calmodulin-domain protein kinase 1 (Toxoplasma gondii, UniProt Q9BJF5)).
79.6 nM

Where do the numbers come from? From BindingDB's records for patent US11518761.
